Target: T1, DPYSL4 peptide complexed with HLA-A*02:01 on T2 cells (human)
T1 construct: whole, on cells
Assay: flow cytometry, peptide-loaded T2 cells;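 note: binding of single-chain Fv antibody constructs, raised in XenoMouse, to peptide-pulsed T2 cells measured by flow cytometry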
measured_parameter: Signal/background
I'd appreciate a reply containing only the number, no unit.

Worked cases, Signal/background given:
18182-H9 (scFv, scFv in bacterial lysate, detected with anti-Flag M2) scFv: EVQLLESGGGLVQPGGSLRLSCAASGFTFSSHAMSWVRQAPGKGLEWVSAISGSGGGTYYADSVKARFTISRDNSKNTLYLQMNSLRAEDTAVYYCATGKGVHLGFDYWGQGTLVTVSSGGGGSGGGGSGGGGSELVLTQPPSVSVAPGQTARITCGGNNIGSKSVHWHQQKPGQAPVLVVYDDNDRPSGIPERFSGSNSGNTATLTISRVEAGDEADFYCQVWDSSSDHVVFGGGTKLTVL
1.1
18181-F3 (scFv, scFv in bacterial lysate, detected with anti-Flag M2) scFv: EVQLLESGGGLVQPGGSLRLSCAASGFTFSNAWMSWVRQAPGKGLEWVGRIKGNTYGGTTDYAAPVKGRFTISRDDSKNTLFLQMNSLKTEDTAVYYCTTPSYSGSYYNYFSVMDVWGQGTTVTVSSGGGGSGGGGSGGGGSELVMTQSPSSLSASVGDRVTITCRTSQSISSYLNWYQQKPGRAPKLLIFAASSLQGGVPSRFSGSGSGTDFTLTISSLQPEDFATYYCQQSYSSPFTFGPGTKVEIK
1.1

q: # input binder: 18179-D7 (scFv, scFv in bacterial lysate, detected with anti-Flag M2) scFv: EVQLLESGGGLVQPGGSLRLSCAASGFTFSNAWMSWVRQAPGKGLEWVGRIKGNTYGGTTDYAAPVKGRFTISRDDSKNTLFLQMNSLKTEDTAVYYCTTPSYSGSYYNYFSVMDVWGQGTTVTVSSGGGGSGGGGSGGGGSELVMTQSPSSLSASVGDRVTITCRTSQSISSYLNWYQQKPGRAPKLLIFAASSLQGGVPSRFSGSGSGTDFTLTISSLQPEDFATYYCQQTYSMPFTFGPGTKVDIK ; wanted: its Signal/background
a: 1.1

These data points were gathered from patent US20220017636A1.
